Tested on: MS2 coat protein
Test: apparent KD of MS2 coat protein, switch ON state; designed switch direction (-1 OFF switch, 1 ON switch): 1; higher = weaker reporter binding
Conditions: FMN input: 0 or 200 uM; Eterna round: R93 (includes R88 designs)
Let's look at some sequences and their measured apparent KD of MS2 coat protein.
assay metric: apparent KD of MS2 coat protein (nM)

INSERT INTO results (residue_codes, target_entity, unit_of_measurement, readout_number) VALUES
  ('GGGAGGAAGAGAGAGGAUAUCCAAAGGAAAACAUGAGGAUCACCCAUGUAAAAGGUAGGAAAUUGGGAGAAGGCUCAAAAGAGUG [salish99-ss2-043]', 'MS2 coat protein', 'nM', 13.7),
  ('AAAUAAAGAUACUAGGAUAUCCCGUGAGGUACAUGAGGAUCACCCAUGUGUAACGAACUCCCGCGGGAGAAGGAGUUGCACACGA [Inanuserra]', 'MS2 coat protein', 'nM', 38),
  ('AAUAUACAUGAGGAUCACCCAUGUUUUAAUAGCUGAGGAUAUACGGGUGAAAACAGCAUAGUAGAAGGCAGGUAUA [SameState1 Malc#7]', 'MS2 coat protein', 'nM', 27.6),
  ('AAGAAACAUGAGGAUCACCCAUGUGAUAAUAUGGGAGGAUAUACGAAGACGAAAGACGAAGUAGAAGGCCUAUGAA [Garnet 45]', 'MS2 coat protein', 'nM', 46.9),
  ('UGGAGACAUGAGGAUCACCCAUGUGAGAAGAGGCGAGGAUAUCGAAAGAAAGAAGAGAAACGAGAAGGCGCGAGGA [salish99-SS1-039]', 'MS2 coat protein', 'nM', 47.6),
  ('GAAAAACAUGAGGAUCACCCAUGUAGAAAUAUGGGAGGAUAUACGAAGUCGAAAGACAAAGUAGAAGGCCUAAAAG [Garnet 27]', 'MS2 coat protein', 'nM', 27.9),
  ('UGAGGACAUGAGGAUCACCCAUGUAGGCCACAAUCAGGAUAUGCAUUAAGGUACCUAAGAGUAGAAGGGAUUCGAG [SameState_Neo]', 'MS2 coat protein', 'nM', 34.9),
  ('UUUAGUUGCGGGCAGGAUAUGUAUUAAAAUACAUGAGGAUCACCCAUGUGCGGGUAUAACACCCGACAGAAGGGCCAAUCGCGAC [Laonerce]', 'MS2 coat protein', 'nM', 18.3),
  ('AACAAUCUAUCUGAGGAUAUCAUGUCAAAGACAUGAGGAUCACCCAUGUGUAGGAAAACUACAUAUGAGAAGGCAGAUAGAUUGA [SS2 :P - 598]', 'MS2 coat protein', 'nM', 610),
  ('GGGAGGAAGAGAGAGGAUAUCCAAAGGAAAACAUGAGGAUCACCCAUGUAAAAGGUAGGAAAUUGGGAGAAGGCUCAAAAGAUGG [salish99-ss2-046]', 'MS2 coat protein', 'nM', 70.5);
